Values from the supplement of paper PMC12042874

assay: amyloid nucleation score (Sup35N fusion, yeast selection) (log enrichment); library NNK2; higher = more nucleation; inactive = no reads after selection;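 also: zero at mode of non-aggregating sequences after 7 days selection at 30°C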
Label T when amyloid nucleation score >= 0.2; otherwise F.

Exam item: decide whether the reported amyloid nucleation score for YTLFYARNLSSMDVICN is at least 0.2. F

Try this substance too: VTRDARRDSQGDKVV T

Try this substance too: YGRRGELN F

* * *

assay: amyloid nucleation score (Sup35N fusion, yeast selection) (log enrichment); library NNK3; higher = more nucleation; inactive = no reads after selection
RECORDED METRIC: amyloid nucleation score

Known amyloid nucleation score results, listed for orientation:
{"SUBSTANCE": "FMWCYMKYCAVHAFDLSWKV", "RECORDED METRIC": "amyloid nucleation score", "REPORTED VALUE": "inactive"}
{"SUBSTANCE": "EVDLLSVNPGVYWDLDWIWF", "RECORDED METRIC": "amyloid nucleation score", "REPORTED VALUE": -0.292}
{"SUBSTANCE": "FLIDDMYWSVMDTWI", "RECORDED METRIC": "amyloid nucleation score", "REPORTED VALUE": "inactive"}
{"SUBSTANCE": "HELELRFLSGWSREFLELEG", "RECORDED METRIC": "amyloid nucleation score", "REPORTED VALUE": "inactive"}
{"SUBSTANCE": "SFNCPNAWSVYLL", "RECORDED METRIC": "amyloid nucleation score", "REPORTED VALUE": "inactive"}

Reported amyloid nucleation score for LVFKYSKAVSTYWYEGDQVT : what is it? inactive

Try this substance too: LTDDSCCPRR inactive

Try this substance too: HGHSQFL inactive

Try this substance too: VYINVNDVALKHRFLKPV inactive

Try this substance too: HVLNEWKSNTGLVVSSAWFC 1.43

* * *

assay: amyloid nucleation score (Sup35N fusion, yeast selection) (log enrichment); library NNK2; higher = more nucleation; inactive = no reads after selection
RECORDED METRIC: amyloid nucleation score

{"SEQUENCE STRING": "FWCINVSTWYNNQELI", "RECORDED METRIC": "amyloid nucleation score", "REPORTED VALUE": "inactive"}
{"SEQUENCE STRING": "NTWYLTKADLDRVGAVMVQT", "RECORDED METRIC": "amyloid nucleation score", "REPORTED VALUE": "inactive"}
{"SEQUENCE STRING": "WNNYVLGYEVNRMCLLDRSV", "RECORDED METRIC": "amyloid nucleation score", "REPORTED VALUE": "inactive"}

* * *

assay: amyloid nucleation score (Sup35N fusion, yeast selection) (log enrichment); library NNK3; higher = more nucleation; inactive = no reads after selection
RECORDED METRIC: amyloid nucleation score

Known amyloid nucleation score results, listed for orientation:
{"SUBSTANCE": "ALPPSVF", "amyloid nucleation score": "inactive"}
{"SUBSTANCE": "SCALDLIDLQKGVTSHKEFI", "amyloid nucleation score": "inactive"}
{"SUBSTANCE": "LRLTIMSGIRVPVFYEHSFM", "amyloid nucleation score": -0.443}
{"SUBSTANCE": "SRFGMHKDTKMWSSRCRCVR", "amyloid nucleation score": "inactive"}
{"SUBSTANCE": "NLSGIHIFLVSRLEWVLDNL", "amyloid nucleation score": "inactive"}

Reported amyloid nucleation score for LVCSLLQASNWCVISSS : what is it? 0.753

Try this substance too: IVCYLSFASLDDLRTRHMCT inactive

Try this substance too: LIRQRLDRLVQHFVDFRVFF inactive

Try this substance too: VFLACNYFILSRNDLKWGYP 2.56

Try this substance too: FNSAHDQAAQVRHLHVNVFL 3

Try this substance too: LLTYHTSGYSCWSEG inactive

Try this substance too: VHTYLSAEWLVFPRHFAVYK inactive

Try this substance too: FPDTALLGCNCLFCLEGDGL inactive

* * *

experiment: amyloid nucleation score (Sup35N fusion, yeast selection) (log enrichment); library NNK3; higher = more nucleation; inactive = no reads after selection
RECORDED METRIC: amyloid nucleation score

{"SUBSTANCE": "RGQFYLLVARLNSKM", "amyloid nucleation score": "inactive"}
{"SUBSTANCE": "ITPWCFLVSCIRVSYAIVPT", "amyloid nucleation score": "inactive"}
{"SUBSTANCE": "CLRRTLEPW", "amyloid nucleation score": "inactive"}
{"SUBSTANCE": "AWSDPSDQQPEQLRVVVDFL", "amyloid nucleation score": "inactive"}
{"SUBSTANCE": "YDLRIYSKRVDPF", "amyloid nucleation score": "inactive"}
{"SUBSTANCE": "VFSDHVLSF", "amyloid nucleation score": "inactive"}

Reported amyloid nucleation score for DRCCLLHYT : what is it? inactive

* * *

test: amyloid nucleation score (Sup35N fusion, yeast selection) (log enrichment); library NNK3; higher = more nucleation; inactive = no reads after selection
RECORDED METRIC: amyloid nucleation score

Known amyloid nucleation score results, listed for orientation:
{"SUBSTANCE": "KNYNNYMVSSNNLLVDIWLV", "amyloid nucleation score": 1.47}
{"SUBSTANCE": "VAGSRCMDAWVKWCMVIRMF", "amyloid nucleation score": 0.247}
{"SUBSTANCE": "ILVCESV", "amyloid nucleation score": "inactive"}
{"SUBSTANCE": "DVNLRTSHYAF", "amyloid nucleation score": "inactive"}
{"SUBSTANCE": "LEYAYSELNSSVSTLSSFE", "amyloid nucleation score": "inactive"}
{"SUBSTANCE": "STWMNTDYGDTTV", "amyloid nucleation score": -0.277}
{"SUBSTANCE": "RKDYGMLYFFLSSRKCTHAI", "amyloid nucleation score": "inactive"}
{"SUBSTANCE": "FMPPFASN", "amyloid nucleation score": "inactive"}
{"SUBSTANCE": "FLCSTSLFVLVLMLTLTNTP", "amyloid nucleation score": "inactive"}
{"SUBSTANCE": "MWACSKYRWMHATDGVGLTY", "amyloid nucleation score": 0.674}

Reported amyloid nucleation score for TLFNLFRVKLIDEPNLAKWL : what is it? inactive

Try this substance too: GIYRLGVNHGMFSCLM inactive

* * *

assay: amyloid nucleation score (Sup35N fusion, yeast selection) (log enrichment); library NNK3; higher = more nucleation; inactive = no reads after selection
RECORDED METRIC: amyloid nucleation score

Known amyloid nucleation score results, listed for orientation:
{"SEQUENCE STRING": "PAPMSVFRHVNFFVKFSPSS", "amyloid nucleation score": "inactive"}
{"SEQUENCE STRING": "FHSQYEGAEERSPRNVLMAR", "amyloid nucleation score": "inactive"}
{"SEQUENCE STRING": "SFYEEGFVSYLDIRGIVYGA", "amyloid nucleation score": "inactive"}
{"SEQUENCE STRING": "FFFVMSRRANVIGSLEDRSD", "amyloid nucleation score": 0.936}
{"SEQUENCE STRING": "PTSKGYVVYKETWVLDRSKM", "amyloid nucleation score": 1.07}
{"SEQUENCE STRING": "FLWSLLYIFIVCGFCNPSRR", "amyloid nucleation score": "inactive"}

Reported amyloid nucleation score for FPGVLSLRYYLLRMRTQ : what is it? inactive

Try this sequence too: VFTFFSMCMTPSYYPCRLAC inactive

Try this sequence too: LVMINCCHVFRKARSTAERQ 2.44

Try this sequence too: MKLHTPIEMLEGTHIGHVCG inactive

Try this sequence too: NMFRRPTVCTVQEQVTEMRV inactive

Try this sequence too: DILEVIDIF inactive

* * *

test: amyloid nucleation score (Sup35N fusion, yeast selection) (log enrichment); library NNK3; higher = more nucleation; inactive = no reads after selection
RECORDED METRIC: amyloid nucleation score

Known amyloid nucleation score results, listed for orientation:
{"SUBSTANCE": "HAVPVYD", "RECORDED METRIC": "amyloid nucleation score", "REPORTED VALUE": -0.394}
{"SUBSTANCE": "NYMVFNIGVGCFTISNTK", "RECORDED METRIC": "amyloid nucleation score", "REPORTED VALUE": 3.14}
{"SUBSTANCE": "CKSDFCISNVLWLYGLKFQR", "RECORDED METRIC": "amyloid nucleation score", "REPORTED VALUE": "inactive"}
{"SUBSTANCE": "CIILRVCTHLVKSSARLPAP", "RECORDED METRIC": "amyloid nucleation score", "REPORTED VALUE": "inactive"}

Reported amyloid nucleation score for VCSLVLWSLSSWWTRYGTLR : what is it? inactive

Try this substance too: CNHLSSTCFT inactive

Try this substance too: EDVSSNIRWRHTGKGETVVM inactive

Try this substance too: TAFTYYASVSFVSRL 1.38

Try this substance too: NFRFPTNGNYGNYLKKESFV inactive

Try this substance too: GWFRSQSMPIALEYLTGPGS inactive

Try this substance too: LWSIRYFKIS inactive

Try this substance too: RHSFMRFRLSNWV inactive

Try this substance too: TTNSQAWPMLTAVRLVYNEG inactive

Try this substance too: YRSEGSWHDDSQSKKWWSGV inactive

Try this substance too: HCGYGLFNCK inactive

Try this substance too: RSANLICLSPLSIIIRDKTL inactive

Try this substance too: YLGEHRVVVRNSMSPQPWLS inactive
